Biological target: Human CD27, full length on the cell surface (human, UniProt P26842 21-260)
Sequence (P26842 21-260 H233R): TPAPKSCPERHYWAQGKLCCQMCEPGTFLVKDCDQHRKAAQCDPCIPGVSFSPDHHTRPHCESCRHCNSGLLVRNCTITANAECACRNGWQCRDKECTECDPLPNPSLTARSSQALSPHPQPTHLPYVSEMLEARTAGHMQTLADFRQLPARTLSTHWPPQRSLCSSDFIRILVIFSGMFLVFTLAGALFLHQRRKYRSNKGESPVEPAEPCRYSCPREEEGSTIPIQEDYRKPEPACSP
Assay: cell-based or functional assay
Provide the recorded NFkB IC50 for the entries that follow.
Please respond with the number in pM and leave the unit unwritten.

Exam item: Specify NFkB IC50 for M493 (antibody, IgG1, V domains shown, also called H228/L250) VH: QVQLVESGGGLVKPGGSLRLSCAASGFTFSSYSMSWIRQAPGKGLEWVSYIDAGGGFTIYPDSVKGRFTISRDNAKNSLYLQMNSLRAEDTAVYYCARHRGNPFDYWGQGTLVTVSS VL: DIQMTQSPSSLSASVGDRVTITCRASKSVSLDRWSFMHWYQQKPGKAPKLLIYLASNLESGVPSRFSGSGSGTDFTFTISSLQPEDIATYYCQHSRELPWTFGQGTKVEIK and stop.
Marked response: 14

Exam item: Specify NFkB IC50 for M489 (antibody, IgG1, V domains shown, also called H227/L250) VH: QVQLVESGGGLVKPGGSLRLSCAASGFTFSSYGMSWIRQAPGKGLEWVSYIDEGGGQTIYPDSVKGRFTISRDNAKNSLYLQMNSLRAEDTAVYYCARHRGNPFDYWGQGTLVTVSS VL: DIQMTQSPSSLSASVGDRVTITCRASKSVSLDRWSFMHWYQQKPGKAPKLLIYLASNLESGVPSRFSGSGSGTDFTFTISSLQPEDIATYYCQHSRELPWTFGQGTKVEIK and stop.
Marked response: 41

Exam item: Specify NFkB IC50 for M492 (antibody, IgG1, V domains shown, also called H228/L249) VH: QVQLVESGGGLVKPGGSLRLSCAASGFTFSSYSMSWIRQAPGKGLEWVSYIDAGGGFTIYPDSVKGRFTISRDNAKNSLYLQMNSLRAEDTAVYYCARHRGNPFDYWGQGTLVTVSS VL: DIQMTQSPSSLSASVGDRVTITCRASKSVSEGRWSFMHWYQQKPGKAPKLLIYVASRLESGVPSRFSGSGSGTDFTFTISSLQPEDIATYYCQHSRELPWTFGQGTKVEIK and stop.
Marked response: 15
